- tested-system: LPA2R (Homo sapiens)
- Sequence (Q9HBW0 whole entry): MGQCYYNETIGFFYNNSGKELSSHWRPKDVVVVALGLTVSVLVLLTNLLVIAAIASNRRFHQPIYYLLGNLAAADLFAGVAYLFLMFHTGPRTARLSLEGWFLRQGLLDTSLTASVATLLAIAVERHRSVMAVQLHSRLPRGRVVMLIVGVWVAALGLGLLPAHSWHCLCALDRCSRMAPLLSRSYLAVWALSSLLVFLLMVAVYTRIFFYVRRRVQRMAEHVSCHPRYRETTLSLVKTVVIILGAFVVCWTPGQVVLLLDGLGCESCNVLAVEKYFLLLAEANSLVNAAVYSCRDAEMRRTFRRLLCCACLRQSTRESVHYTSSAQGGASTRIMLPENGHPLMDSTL
- protocol-notes: LPA2R-Calciumflux assay (FLIPR, intracellular calcium mobilisation after LPA)
- measurement-conditions: U2OS cells recombinant expressing LPA2R; antagonism of LPA-induced calcium flux; racemate of the two trans enantiomers unless marked enantiomer
For each record, write down the corresponding IC50.

Report IC50 for CN(C(=O)C1CC1c1ccccc1)c1nc2ccccc2[nH]1 (racemic)
1 to 10 µM

Report IC50 for O=C(Nc1nc2ccccc2[nH]1)C1CC1c1c(Cl)cccc1Cl (racemic)
> 10 µM

Report IC50 for O=C(O)c1ccc2[nH]c(NC(=O)C3CC3c3ccccc3)nc2c1 (racemic)
> 10 µM

Report IC50 for Cc1ccc2nc(NC(=O)C3CC3c3ccccc3)[nH]c2c1 (racemic)
0.1 to 1 µM

Report IC50 for N#Cc1ccc2nc(NC(=O)C3CC3c3ccccc3)[nH]c2c1 (racemic)
0.01 to 0.1 µM

Report IC50 for Cn1c(NC(=O)C2CC2c2ccccc2)nc2ccccc21 (racemic)
> 10 µM

Report IC50 for O=C(Nc1nc2ccccc2[nH]1)C1CC1c1ccccc1Cl (single isomer, unassigned)
0.01 to 0.1 µM

Report IC50 for O=C(Nc1nc2ccccc2[nH]1)C1CC1c1cccc(Cl)c1Cl (racemic)
0.1 to 1 µM

Report IC50 for O=C(OCc1ccccc1)C1CCN(CNc2cccc3[nH]c(NC(=O)C4CC4c4ccccc4)nc23)C1 (racemic)
1 to 10 µM
